Where do these numbers come from? They come from PubChem BioAssay (NCI).

Tested on: SF-539 CNS
Experiment: NCI tumour cell line growth inhibition, 48 h
observable: TGI

// field: TGI; key: O=C1C(Cl)C(c2ccc(O)cc2)N1n1cnc2ccccc2c1=O (stereo unspecified) ; value = > 100 µM

// field: TGI; key: `CC(C)n1cc(-c2ccc3c(c2)N(C)CC3)c2c(NS(=O)(=O)c3ccn(C)n3)ccnc21` ; value = > 100 µM

---

Test system: K-562 leukemia
Assay: NCI tumour cell line growth inhibition, 48 h
Below, each of the compounds is paired with its reported TGI value.
Please state the figure in µM; there is no need to write the unit.

Cc1cc(NS(=O)(=O)c2ccc(NO)cc2)no1
43.7

// moving on: another record for TGI
// field: TGI; key: `CN(C)CCC(=O)[C@@]1(O)CC[C@H]2[C@@H]3CC=C4C[C@@H](O)CC[C@]4(C)[C@H]3CC[C@@]21C` ; value = 48.9

---

System: SNB-75 CNS
Assay: NCI tumour cell line growth inhibition, 48 h
Below, each of the compounds is paired with its reported TGI value.
Please state the figure in µM; there is no need to write the unit.

O=C(c1ccccc1)n1cc(/C=C/[N+](=O)[O-])c2ccccc21
82.1
COc1ccc(/C(C)=C2\CCCN(Cc3ccccc3)C2)cc1
73.1
C=C1N(C)c2ccc(S(=O)(=O)c3ccc4c(c3)C(C)(C)C(=C)N4C)cc2C1(C)C
62.7
CCOC(=O)N1c2ccccc2N(C(=O)OCC)C1CC(=O)/C=C/c1ccccc1
9.92

// field: TGI; key: `COc1cc(-c2oc3c(OC)c(O)c(OC)c(O)c3c(=O)c2OC)cc(OC)c1OC` ; value = 60.2

// field: TGI; key: `Cc1ccc(NC(=O)c2cccc(OP(=O)(Nc3ccc(C)cc3)Nc3ccc(C)cc3)c2)cc1` ; value = 30.6

// field: TGI; key: CCCCCN1C(=O)C(Cc2ccccc2)N=C(c2ccc(O)cc2)c2cc(Cl)ccc21 (centres undefined) ; value = 23.7

// field: TGI; key: `Nc1nc(N)c2cc(S(=O)(=O)c3ccc4ccccc4c3)ccc2n1` ; value = 12.3

// field: TGI; key: `COC1(OC)CCN(Cc2ccccc2)C1=O` ; value = 30.6

// field: TGI; key: `Cc1[nH]c(C(=O)Nc2cccc(OC3CCNCC3)c2)c(Cl)c1Cl` ; value = 2.65

// field: TGI; key: `COc1ccc(C[C@H]2COC(=O)[C@@H]2Cc2ccc(Br)cc2)cc1OC` ; value = 85.1

// field: TGI; key: NC(=O)C1=C(O)[C@@]2(O)C(=O)C3=C(O)c4c(O)cccc4CC3C[C@H]2CC1=O (some centres undefined) ; value = 8.35

// field: TGI; key: `CC(C)=CCC/C(C)=C/Cc1c2c(c3oc(-c4ccc(O)c(O)c4)c(O)c(=O)c3c1O)C=CC(C)(C)O2` ; value = 11.6

---

Tested on: NCI-H226 lung
Experiment: NCI tumour cell line growth inhibition, 48 h
observable: TGI

// field: TGI; key: `O=C(CCN1CCCCC1)c1csc2ccccc12` ; value = > 100 µM

// field: TGI; key: `CC(C)=CCC/C(C)=C/Cc1c2c(c3oc(-c4ccc(O)c(O)c4)c(O)c(=O)c3c1O)C=CC(C)(C)O2` ; value = 15.2 µM

---

Test system: MDA-N
Test: NCI tumour cell line growth inhibition, 48 h
Below, each of the compounds is paired with its reported TGI value.

Past entries and their recorded results:
CC(=O)N1C(c2[nH]c3ccccc3c2Cc2ccccc2)CCN1c1ccccc1 (stereo unspecified)
> 10 µM
CC(=O)Oc1ccc2c(c1)[nH]c1c3ccc(OC(C)=O)cc3oc(=O)c21
> 100 µM
O=c1[nH][nH]c(=O)n1Cc1ccccc1
> 100 µM
O=C(O)CN1C(=O)OC(c2ccccc2)C1=O (stereo unspecified)
> 100 µM
CCn1c2ccccc2c2ccc(C3C4C(=O)N(c5cccc6ccccc56)C(=O)C4ON3C(C(N)=O)c3ccccc3)cc21 (stereo unspecified)
> 25 µM

// moving on: another record for TGI
// field: TGI; key: `N#CCCC1(CCC#N)S(=O)(=O)OCCOS1(=O)=O` ; value = > 100 µM

---

System: SNB-19 CNS
Assay: NCI tumour cell line growth inhibition, 48 h
The label depends only on TGI: 1.0 if it is at least 3 µM, 0.0 if it is smaller.

CS(=O)(=O)N1CCC(Nc2ncc(C(=O)c3c(F)cccc3F)c(N)n2)CC1
1.0

Entry Nc1c(C(=O)Nc2cccc(Cl)c2)sc2nc3c(cc12)C(O)CCC3 (centres undefined) : is its TGI no less than 3 µM?
1.0

Entry `CC1(C)CC[C@]23CC[C@]4(C)[C@H](CC[C@@H]5[C@@]6(C)CCCNC(C)(C)[C@@H]6CC[C@]54C)[C@H]2[C@H]1OC3` : is its TGI no less than 3 µM?
1.0

Entry `Nc1ccc(Oc2ccc(C34CC5C6CC7(c8ccc(Oc9ccc(N)cc9)cc8)CC5C(C3)C(C7)C6C4)cc2)cc1` : is its TGI no less than 3 µM?
1.0

Entry `CCCCCc1cc(/C=C2/N=C(c3ccc[nH]3)C=C2OC)[nH]c1C` : is its TGI no less than 3 µM?
0.0

Entry CC(C)(C)N1CC1CNC(=O)C(=O)NCC1CN1C(C)(C)C (centres undefined) : is its TGI no less than 3 µM?
1.0

---

Test system: SNB-19 CNS
Experiment: NCI tumour cell line growth inhibition, 48 h
observable: TGI

Past entries and their recorded results:
Cn1c2ncccc2n2c(=O)cc(O)cc12
> 100 µM
Nc1nc2ccc(CNc3ccc(C(=O)NC(CC(=O)O)C(=O)O)cc3)cc2c(=O)[nH]1 (stereo not drawn)
> 100 µM

// moving on: another record for TGI
// field: TGI; key: `Nc1c(F)c(F)c2c(c1F)N(CCCCCl)c1ccccc1S2` ; value = > 100 µM

---

Tested on: HOP-62 NSCLC
Assay: NCI tumour cell line growth inhibition, 48 h
Below, each of the molecules is paired with its reported TGI value.

// field: TGI; key: CCN1C(=O)/C(=c2\sc3n(c2=O)C2C(NN=3)N(CC)C(=O)N2CC)c2ccccc21 (centres undefined) ; value = > 42.6 µM

// field: TGI; key: `NC(=O)c1c[nH]c2ncnc(N)c12` ; value = > 100 µM

// field: TGI; key: `Nc1c(F)c(F)c2c(c1F)N(CCCCCl)c1ccccc1S2` ; value = > 100 µM

// field: TGI; key: `COc1cc(/C=C2\CCC/C(=C\c3cc(CN4CCCC4)c(O)c(OC)c3)C2=O)cc(CN2CCCC2)c1O` ; value = 9.35 µM

---

System: UACC-257 melanoma
Assay: NCI tumour cell line growth inhibition, 48 h
Below, each of the molecules is paired with its reported TGI value.

Cc1ccc(NC(=S)NNC(=S)Nc2ccc(C)cc2)cc1
> 100 µM

Summary line: `COc1ccc(OC)c(C2=C(c3cn(C)c4ccccc34)C(=O)NC2=O)c1` , UACC-257 melanoma, reported TGI = > 25 µM

Summary line: `O=C(/C=C(/C=C/c1cccc2[nH]ccc12)OB(F)F)/C=C/c1cccc2[nH]ccc12` , UACC-257 melanoma, reported TGI = 11.8 µM

Summary line: `O=c1ccn(C/C=C/c2ccccc2)c(=S)n1C/C=C/c1ccccc1` , UACC-257 melanoma, reported TGI = > 100 µM

Summary line: `c1ccc(-c2cc3nc4ccccc4nc3cc(-c3ccccc3)[nH][nH]2)cc1` , UACC-257 melanoma, reported TGI = > 100 µM

---

System: NCI-H460 lung
One label from this list, please: label 1 (active), label 0 (inactive)

Consider the worked cases shown below.
Nc1c(C(=O)Nc2cccc(Cl)c2)sc2nc3c(cc12)C(O)CCC3 (centres undefined)
label 1
CC(C)C[C@H](NC(=O)[C@@H](Cc1ccccc1)n1ccc(Nc2ccccc2)cc1=O)B(O)O
label 0
CC[O-].CC[O-].O=C1C=C([O-])C(=O)c2ccccc21.O=C1C=C([O-])C(=O)c2ccccc21.[Ti+4]
label 0

Next up:
Just curious, what result did `COc1ccc2nc3cc([N+](=O)[O-])ccc3c(NCCO)c2c1` get here?
label 0

---

Below, each of the compounds is paired with its reported TGI value.
Test system: SK-MEL-28 melanoma
Assay: NCI tumour cell line growth inhibition, 48 h

Cn1cc(-c2csc(-c3ccccc3)n2)c2cccnc21
31.5 µM
C=C(C)COc1ccc2c(c1)CCC1C2CCC2(C)C(=O)/C(=N/O)CC12 (configuration not stated)
33.3 µM
CCOC(=O)C#Cc1cccc(C#CC(=O)OCC)c1
9.99 µM
CC(C)=CCC/C(C)=C/Cc1c2c(c3oc(-c4ccc(O)c(O)c4)c(O)c(=O)c3c1O)C=CC(C)(C)O2
10.8 µM
Cc1ccccc1N(CCC#N)C1=NN(C(=O)CC(=O)Nc2ccc(Cl)cc2)C(c2ccccc2)C1 (configuration not stated)
> 100 µM

// field: TGI; key: `CC1=CC2(C)C=C[C@@H]1C(=O)[C@@]1(C)CC[C@@](O)(C(C)C)[C@H]1CC2` ; value = 41.7 µM

// field: TGI; key: `Nc1[nH]c(=O)nc2c1cnn2COCCO` ; value = > 100 µM

// field: TGI; key: COc1cc2cc(C(=O)N3CC(CCl)c4ccc(NO)cc43)[nH]c2c(OC)c1OC (configuration not stated) ; value = 3.22 µM

// field: TGI; key: CCn1c2ccccc2c2ccc(C3C4C(=O)N(c5cccc6ccccc56)C(=O)C4ON3C(C(N)=O)c3ccccc3)cc21 (configuration not stated) ; value = > 25 µM

// field: TGI; key: `COc1ccc2[nH]c(C(=O)OCc3ccc4c(Br)cc(Br)c(O)c4n3)cc2c1` ; value = 2.53 µM

// field: TGI; key: `CC(C)N(CC(=O)O)CC(=O)O` ; value = > 100 µM

// field: TGI; key: `O=C(Nn1c(-c2ccccc2)nc2ccccc2c1=O)c1cccc([N+](=O)[O-])c1` ; value = > 100 µM

// field: TGI; key: `COc1cccc2nc(Nc3cccc(NC(=O)c4ccc(N5CCN(C)CC5)c(C(F)(F)F)c4)c3)ccc12` ; value = 1.64 µM

// field: TGI; key: NC(CCc1nc(-c2cccc([N+](=O)[O-])c2)cs1)C(=O)O (configuration not stated) ; value = > 100 µM

// field: TGI; key: CCCCC(CC)C(=O)Oc1ccc(C(=O)c2ccccc2)c(O)c1 (configuration not stated) ; value = > 100 µM

// field: TGI; key: `CC1(C)N=C(C(N)=O)c2ncn(Cc3ccccc3)c2N1` ; value = > 100 µM

// field: TGI; key: `N#Cc1c(-c2ccccc2)cn(C(=O)c2ccccc2)c1N` ; value = > 100 µM

// field: TGI; key: `Cc1ccc2ncnc(N(C)C3CCCCC3)c2c1` ; value = > 100 µM

// field: TGI; key: `COc1cc2ccnc(C#N)c2cc1OCc1ccccc1` ; value = > 100 µM
